assay.text: PK analysis: Cmax and AUC from PK models fitted to serum and ISF concentrations
Format: in vivo, Male Sprague Dawley rats
experimental.context: male, Sprague Dawley, rat, ISF, iv, 50 mg/kg, GEN, Rat # 5, dose 50 mg/kg i.v.; read-out: ISF AUC (converted)
measured.endpoint: AUC (µM·h)
Quick note: give the figure in µM·h, leave out the unit.

Given the entry CNC(C)C1CCC(N)C(OC2C(N)CC(N)C(OC3OCC(C)(O)C(NC)C3O)C2O)O1 (stereo not shown) , report its measured AUC.
1230

====

assay.text: PK analysis: Cmax and AUC from PK models fitted to serum and ISF concentrations
Format: in vivo, Male Sprague Dawley rats
experimental.context: male, Sprague Dawley, rat, in vivo, iv, 15 mg/kg, VAN, Rat # 1, dose 15 mg/kg i.v.; read-out: ISF AUC (converted)
measured.endpoint: AUC (µM·h)
Quick note: give the figure in µM·h, leave out the unit.

Given the entry "CN[C@H](CC(C)C)C(=O)N[C@H]1C(=O)N[C@@H](CC(N)=O)C(=O)N[C@H]2C(=O)N[C@H]3C(=O)N[C@H](C(=O)N[C@H](C(=O)O)c4cc(O)cc(O)c4-c4cc3ccc4O)[C@H](O)c3ccc(c(Cl)c3)Oc3cc2cc(c3O[C@@H]2O[C@H](CO)[C@@H](O)[C@H](O)[C@H]2O[C@H]2C[C@](C)(N)[C@H](O)[C@H](C)O2)Oc2ccc(cc2Cl)[C@H]1O" , report its measured AUC.
37
